Values compiled from paper PMC9005681.

Kindly supply the reported Mean % values for the records listed here.
# Tested Target: cloned human or rodent CNS receptors, channels, and transporters (PDSP panel) (Homo sapiens)
# Construct: expressed in transfected cells
# Sequence (P08173 1-479): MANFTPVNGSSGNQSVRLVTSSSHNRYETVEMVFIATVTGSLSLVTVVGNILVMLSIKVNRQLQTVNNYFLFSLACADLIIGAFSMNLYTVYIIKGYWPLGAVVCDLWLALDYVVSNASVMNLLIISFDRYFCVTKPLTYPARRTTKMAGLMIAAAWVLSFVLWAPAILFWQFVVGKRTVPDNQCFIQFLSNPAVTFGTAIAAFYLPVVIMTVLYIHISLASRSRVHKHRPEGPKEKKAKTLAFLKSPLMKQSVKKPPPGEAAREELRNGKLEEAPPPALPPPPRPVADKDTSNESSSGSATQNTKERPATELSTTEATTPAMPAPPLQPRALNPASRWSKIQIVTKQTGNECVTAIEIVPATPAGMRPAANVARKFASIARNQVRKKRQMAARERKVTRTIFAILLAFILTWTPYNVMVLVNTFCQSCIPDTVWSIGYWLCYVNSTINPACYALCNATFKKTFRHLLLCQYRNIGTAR
# Experiment: PDSP GPCR panel primary binding assays at 10 μM
# Condition Context: M4; primary assay, mean inhibition
One number for each entry, in %.

                                   compound  readout_number
0  CCC(=O)N1CCC(NC(=O)Nc2ccc(OC(F)(F)F)cc2)CC1 [UNC10302681A, TPPU]           27.22

Please give Mean %, item by item, for the list that follows.
1. CNc1nc(C)nc(N[C@H]2CCC[C@@H](C(=O)NCc3ccc(C#N)cc3C(F)(F)F)C2)n1 [UNC10302679A, GSK2256294A]
2. O=C(NC1CC1)C(=O)C(Cc1ccccc1)NC(=O)[C@H]1CCC(=O)N1Cc1ccccc1 (stereo partly shown) [UNC10302676A, ABT-957 (Alicapistat)]
3. CC(=O)N1CCC(NC(=O)NC23CC4CC(CC(C4)C2)C3)CC1 [UNC10302683A, AR9281]

Outgoing:
1. 14.93
2. -0.92
3. 12.52
